Cited source: ChEMBL document CHEMBL1145555

Tested on: THP-1
test.details: Induction of IL6 gene expression in human THP1 cells at 10 uM by array plate mRNA assay
Format: functional
Listed molecules paired with reported Activity
Respond with the number and no other words.

>  <molecule>
O=C(O)Cc1cccc(OCCCN(Cc2cccc(C(F)(F)F)c2Cl)CC(c2ccccc2)c2ccccc2)c1

>  <Activity>
1.02

$$$$

Input: Would you mind telling me what Activity value was observed for O=S(=O)(c1ccccc1)N(CC(F)(F)F)c1ccc(C(O)(C(F)(F)F)C(F)(F)F)cc1 ?
Output: 1.78

Input: Would you mind telling me what Activity value was observed for C[C@@H]1C2Cc3ccc(O)cc3[C@]1(C)CCCN2CCc1ccccc1 ?
Output: 0.91

Input: Would you mind telling me what Activity value was observed for C[C@H](CC[C@@H]1OC1(C)C)[C@H]1CC[C@H]2[C@@H]3CC=C4C[C@@H](O)CC[C@]4(C)[C@H]3CC[C@]12C [24(S),25-EPOXYCHOLESTEROL] ?
Output: 0.82

====

Test system: THP-1
test.details: Induction of FASN gene expression in human THP1 cells at 10 uM by array plate mRNA assay
Type: functional
Listed compounds paired with reported Activity

>  <compound>
C[C@H](CC[C@@H]1OC1(C)C)[C@H]1CC[C@H]2[C@@H]3CC=C4C[C@@H](O)CC[C@]4(C)[C@H]3CC[C@]12C [24(S),25-EPOXYCHOLESTEROL]

>  <measured.result>
0.89

$$$$
>  <compound>
O=C(O)Cc1cccc(OCCCN(Cc2cccc(C(F)(F)F)c2Cl)CC(c2ccccc2)c2ccccc2)c1

>  <measured.result>
3.77

$$$$
>  <compound>
O=S(=O)(c1ccccc1)N(CC(F)(F)F)c1ccc(C(O)(C(F)(F)F)C(F)(F)F)cc1 [T091317]

>  <measured.result>
2.59

$$$$

Input: Would you mind telling me what Activity value was observed for C[C@@H]1C2Cc3ccc(O)cc3[C@]1(C)CCCN2CCc1ccccc1 ?
Output: 1.75

====

Tested on: THP-1
test.details: Induction of ACTB gene expression in human THP1 cells at 10 uM by array plate mRNA assay
Type: functional
Listed molecules paired with reported Activity
Respond with the number and no other words.

Consider the reported Activity for these molecules:
>  <molecule>
C[C@H](CC[C@@H]1OC1(C)C)[C@H]1CC[C@H]2[C@@H]3CC=C4C[C@@H](O)CC[C@]4(C)[C@H]3CC[C@]12C [24(S),25-EPOXYCHOLESTEROL]

>  <Activity>
0.9

$$$$
>  <molecule>
O=C(O)Cc1cccc(OCCCN(Cc2cccc(C(F)(F)F)c2Cl)CC(c2ccccc2)c2ccccc2)c1

>  <Activity>
0.89

$$$$

Input: Would you mind telling me what Activity value was observed for C[C@@H]1C2Cc3ccc(O)cc3[C@]1(C)CCCN2CCc1ccccc1 ?
Output: 0.93

Input: Would you mind telling me what Activity value was observed for O=S(=O)(c1ccccc1)N(CC(F)(F)F)c1ccc(C(O)(C(F)(F)F)C(F)(F)F)cc1 ?
Output: 0.93

====

System: THP-1
test.details: Induction of SREBP1c gene expression in human THP1 cells at 10 uM by array plate mRNA assay
Assay type: functional
Listed molecules paired with reported Activity
Respond with the number and no other words.

>  <molecule>
O=S(=O)(c1ccccc1)N(CC(F)(F)F)c1ccc(C(O)(C(F)(F)F)C(F)(F)F)cc1

>  <Activity>
4.09

$$$$
>  <molecule>
C[C@@H]1C2Cc3ccc(O)cc3[C@]1(C)CCCN2CCc1ccccc1

>  <Activity>
4.05

$$$$
>  <molecule>
O=C(O)Cc1cccc(OCCCN(Cc2cccc(C(F)(F)F)c2Cl)CC(c2ccccc2)c2ccccc2)c1

>  <Activity>
5.28

$$$$

Moving on to another molecule below.
Input: API: value(readout= Activity, system= THP-1, query= C[C@H](CC[C@@H]1OC1(C)C)[C@H]1CC[C@H]2[C@@H]3CC=C4C[C@@H](O)CC[C@]4(C)[C@H]3CC[C@]12C [24(S),25-EPOXYCHOLESTEROL] )
Output: 2.05
